# Tested on: KM12
# assayExplanation: Growth inhibition of human KM12 cells assessed as cell growth at 10^-6 M incubated for 48 hrs by sulforhodamine B assay
# Format: functional
# conditionSummary: KM12, 48 h, read-out: Activity
readoutLabel: growth at 1 µM
Quote the value and follow it with the unit of measurement.

// worked examples, growth at 1 µM included
[
  {
    "smilesStr": "Fc1ccc(-c2nc(Nc3ccc(-c4nc5ccccc5[nH]4)cc3)nc(N3CCOCC3)n2)cc1",
    "growth at 1 µM": "86%"
  },
  {
    "smilesStr": "c1ccc(-c2nc(Nc3ccc(-c4nc5ccccc5[nH]4)cc3)nc(N3CCOCC3)n2)cc1",
    "growth at 1 µM": "85%"
  },
  {
    "smilesStr": "c1ccc2[nH]c(-c3ccc(Nc4nc(N5CCCCC5)nc(N5CCOCC5)n4)cc3)nc2c1",
    "growth at 1 µM": "93%"
  }
]

Then this compound:
Using the record for "Clc1ccc(-c2nc(Nc3ccc(-c4nc5ccccc5[nH]4)cc3)nc(N3CCOCC3)n2)cc1" , report its growth at 1 µM.
14%

* * *

# assayExplanation: Growth inhibition of human DU145 cells assessed as cell growth at 10^-6 M incubated for 48 hrs by sulforhodamine B assay
# Type: functional
# conditionSummary: DU-145, 48 h, read-out: Activity
readoutLabel: growth at 1 µM (%)
Answers are plain numbers, in %.

The examples below pair each entry with its known result.
[
  {
    "smilesStr": "c1ccc(-c2nc(Nc3ccc(-c4nc5ccccc5[nH]4)cc3)nc(N3CCOCC3)n2)cc1",
    "readoutNumber": 63
  },
  {
    "smilesStr": "c1ccc2[nH]c(-c3ccc(Nc4nc(N5CCCCC5)nc(N5CCOCC5)n4)cc3)nc2c1",
    "readoutNumber": 96
  },
  {
    "smilesStr": "Fc1ccc(-c2nc(Nc3ccc(-c4nc5ccccc5[nH]4)cc3)nc(N3CCOCC3)n2)cc1",
    "readoutNumber": 98
  }
]

Now look at this entry.
Which growth at 1 µM is reported for this compound? "Clc1ccc(-c2nc(Nc3ccc(-c4nc5ccccc5[nH]4)cc3)nc(N3CCOCC3)n2)cc1"
26

* * *

# targetDesc: Albumin (Bos taurus)
# Sequence (P02769 whole entry): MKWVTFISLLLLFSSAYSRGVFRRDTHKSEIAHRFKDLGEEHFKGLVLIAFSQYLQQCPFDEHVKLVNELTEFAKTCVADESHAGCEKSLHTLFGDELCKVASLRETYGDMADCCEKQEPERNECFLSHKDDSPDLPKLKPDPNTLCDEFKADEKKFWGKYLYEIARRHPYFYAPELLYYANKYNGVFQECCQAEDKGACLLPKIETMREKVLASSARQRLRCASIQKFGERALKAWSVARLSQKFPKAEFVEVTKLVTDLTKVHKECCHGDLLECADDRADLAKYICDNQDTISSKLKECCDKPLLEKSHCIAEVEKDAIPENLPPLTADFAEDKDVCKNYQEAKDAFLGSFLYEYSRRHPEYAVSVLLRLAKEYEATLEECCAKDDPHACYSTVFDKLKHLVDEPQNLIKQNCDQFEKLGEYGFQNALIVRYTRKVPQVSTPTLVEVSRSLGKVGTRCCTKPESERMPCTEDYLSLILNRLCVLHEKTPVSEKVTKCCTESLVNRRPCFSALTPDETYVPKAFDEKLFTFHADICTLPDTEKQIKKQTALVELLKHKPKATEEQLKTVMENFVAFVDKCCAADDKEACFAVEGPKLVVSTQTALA
# assayExplanation: Binding affinity to bovine serum albumin assessed as red shift in emission intensity up to 20 uM by fluorescence spectroscopic analysis relative to control
# Type: ADME
# conditionSummary: cattle, isolated protein
readoutLabel: Activity (nm)
Numbers only, in nm.

Illustrative cases are given below, each with its answer.
[
  {
    "smilesStr": "c1ccc(-c2nc(Nc3ccc(-c4nc5ccccc5[nH]4)cc3)nc(N3CCOCC3)n2)cc1",
    "Activity [nm]": 20
  },
  {
    "smilesStr": "c1ccc2[nH]c(-c3ccc(Nc4nc(NCCN5CCOCC5)nc(N5CCOCC5)n4)cc3)nc2c1",
    "Activity [nm]": 23
  },
  {
    "smilesStr": "Clc1ccc(-c2nc(Nc3ccc(-c4nc5ccccc5[nH]4)cc3)nc(N3CCOCC3)n2)cc1",
    "Activity [nm]": 22
  },
  {
    "smilesStr": "c1ccc2[nH]c(-c3ccc(Nc4nc(NC5CCCCC5)nc(N5CCOCC5)n4)cc3)nc2c1",
    "Activity [nm]": 17
  }
]

Consider the record given below.
I'd like to know its Activity. The compound in question is "c1ccc2[nH]c(-c3ccc(Nc4nc(N5CCCCC5)nc(N5CCOCC5)n4)cc3)nc2c1"
25
